Ref: the RepoRT retention time repository (doi:10.1038/s41586-021-03707-9)

assay: RP, Waters ACQUITY UPLC HSS C18, 100 × 2.1 mm, 1.7 µm, 40 °C, 0.35 mL/min, estimated dead time 0.63 min; A: water + 0.1% formic acid; B: methanol + 0.1% formic acid; gradient (min/%B) 0/0.5 4/70 4.5/98 5.4/98; conditions: stereoisomer not certain
measure: LC retention time (min)
# value in min; strip the unit string

molecule	LC retention time / min
CCC1C(=O)OCC1Cc1cncn1C (centres undefined)	2.04

// Input: Cn1cnc(=N)c2[nH]cnc21 . Output its LC retention time only. 0.862

Retrieve LC retention time measured for O=C(O)c1ccc(O)cc1 and print it. 3.1

Please list LC retention time recorded for the molecule NCC(O)c1ccc(O)c(O)c1 (centres undefined) 0.806

Output measured LC retention time for this item: CN(C)CC(=O)O 0.77

---

experiment: RP, Waters ACQUITY UPLC HSS C18, 100 × 2.1 mm, 1.7 µm, 40 °C, 0.35 mL/min, estimated dead time 0.63 min; A: water + 0.1% formic acid; B: methanol + 0.1% formic acid; gradient (min/%B) 0/0.5 4/70 4.5/98 5.4/98; details: stereoisomer not certain
measure: LC retention time

Return LC retention time (reported value) for this compound: CSc1ncnc2nc[nH]c12 3.43 min

Respond only with LC retention time recorded for Nc1ccn(C2OC(CO)C(O)C2O)c(=O)n1 (stereo unspecified) 1.1 min

Check the records and state LC retention time for NC(C(=O)O)c1ccc(O)cc1 (stereo unspecified) 0.808 min

Return value of LC retention time for input CC(C)CC(=O)NCC(=O)O , no commentary. 3.07 min

Could you please provide reported LC retention time for COC(=O)C1=C(C)NC(C)=C(C(=O)OCCN(C)Cc2ccccc2)C1c1cccc([N+](=O)[O-])c1 (stereo unspecified) ? Thanks! 4.6 min

Provide measured LC retention time value, entry: CC(=O)OC(CC(=O)[O-])C[N+](C)(C)C (stereo unspecified) 0.864 min

---

experiment: RP, Waters ACQUITY UPLC HSS C18, 100 × 2.1 mm, 1.7 µm, 40 °C, 0.35 mL/min, estimated dead time 0.63 min; A: water + 0.1% formic acid; B: methanol + 0.1% formic acid; gradient (min/%B) 0/0.5 4/70 4.5/98 5.4/98; conditions: stereoisomer not certain
Recorded LC retention time values for a group of compounds are listed next.
Output spec: scalar in min, unitless text.

// worked examples, LC retention time included
compound	LC retention time / min
CC(=O)c1ccc(O)cc1O	4.09
CNCCC(Oc1ccccc1C)c1ccccc1 (stereo not given)	4.72
CCN(CC)CCNC(=O)c1ccc(N)cc1	2.01

Give reported LC retention time value for CCCC(=O)NCC(=O)O 2.36

Fill in LC retention time for record C[N+](C)(C)CCOP(=O)([O-])OCC(O)CO (stereo not given) 0.764

Give the reported value of LC retention time for this record: Oc1ccc(C=Cc2cc(O)cc(O)c2)cc1 4.15

Give the value of LC retention time reported for the following: O=C(O)c1cccnc1C(=O)O 1.35

State its LC retention time for this compound: Nc1ccccc1S(=O)(=O)O 1.79

Supply LC retention time value. Item: O=S(=O)(O)c1ccc(O)cc1 1.02

---

assay: Waters ACQUITY UPLC BEH C18, 100 × 2.1 mm, 1.7 µm, 40 °C, 0.28 mL/min, estimated dead time 0.63 min; A: water + 6.5 mM ammonium hydroxide; B: methanol + 6.5 mM ammonium hydroxide; gradient (min/%B) 0/0.5 4/70 4.5/98 5.4/98; settings: stereoisomer not certain
# cutoff 0.9 min applies to LC retention time; >= gives met, < gives not met

Reference set, count: 10
compound	cat
Nc1ncnc2c1ncn2C1OC(COP(=O)(O)O)C(O)C1O (stereo not drawn)	not met
Nc1ccccc1C(=O)O	met
CNC(=C[N+](=O)[O-])NCCSCc1csc(CN(C)C)n1	met
O=C(O)CCCc1c[nH]c2ccccc12	met
CCCCCCCC(=O)NCC(=O)O	met
COc1cccc(OC)c1C(=O)O	met
CC(C)NCC(O)COc1ccc(CC(N)=O)cc1 (stereo not drawn)	met
O=C(O)C(=O)Cc1c[nH]c2ccccc12	met
NCCCCC(NC(CCc1ccccc1)C(=O)O)C(=O)N1CCCC1C(=O)O (stereo not drawn)	met
CCCCC(CC)CCC(=O)O (stereo not drawn)	met

API: above_or_equal(metric=LC retention time, cutoff=0.9 min) for item Nc1ccnc(=O)[nH]1 met

Evaluate NCC1CCC(C(=O)O)CC1 (stereo not drawn) : LC retention time at minimum 0.9 min? not met

Decide: is the reported value of LC retention time for O=C1CC(C(=O)O)NC(=O)N1 (stereo not drawn) equal to or greater than 0.9 min? not met

Quick check, LC retention time >= 0.9 min? CNCCc1c[nH]c2ccccc12 met

In plain terms: is recorded LC retention time at least 0.9 min for CN(CC(=O)O)C(=N)N ? not met

Is LC retention time at least 0.9 min? Consider NC(=O)NCCCC(N)C(=O)O (stereo not drawn) not met

Determine whether this compound has LC retention time no lower than 0.9 min: O=S(=O)(O)CCO not met

Check the entry CSCCC(O)C(=O)O (stereo not drawn) : does LC retention time equal or exceed 0.9 min? met
